# Experiment: Induction of erythroid differentiation in DBA/2J mouse Friend erythroleukemia cells assessed as hemoglobin level per 10^7 cells after 3 to 6 days relative to control
# Assay type: functional, Leukemia cell
Param label: returns Condition met when Activity < 20 µg, returns Condition not met otherwise, including exact equality.

Worked set:
> print(dat)
                            molecule     discrete.label
1  CC(=O)Nc1cc(-c2ccccc2)cc[n+]1[O-]      Condition met
2             CC(=O)Nc1ccc(=O)n(C)c1  Condition not met
3               CC(=O)Nc1cccc(=O)n1C  Condition not met
4  C[S+](C)[O-] [DIMETHYL SULFOXIDE]  Condition not met
5                  CC(=O)NCCc1ccccn1  Condition not met

Input: Regarding CC(=O)NCc1ccccn1 , kindly confirm whether its Activity is beneath 20 µg.
Output: Condition not met
